These entries and their values trace back to patent US20260028365A1.

- Assayed System: Tyk2 (Homo sapiens (Human))
- Assay Notes: pSTAT4 Cell Assay (MSD, NK92 cells)
- Assay type: cell-based
- Measurement Setup: MSD
pIC50: −log10 of the molar value.
Endpoint Name: pIC50

Bench note: what pIC50 did CC(=O)Nc1cc(Nc2cc(C)nc(C(C)(F)F)n2)c(-c2ccc([C@@H]3CN(C)CCO3)cn2)cn1 (single isomer, unassigned) [Example 643] show?
≥ 8.00

Then CC(=O)Nc1cc(Nc2cc(C)nc(C(C)(F)F)n2)c(-c2cn(C)nn2)cn1 [Example 607] ?
≥ 8.00

Then CC(=O)Nc1cc(Nc2ccnc(C(C)(F)F)n2)c(-c2ncc(Cl)cn2)cn1 [Example 697] ?
7.00 to 8.00

Then COc1cc(-c2cnc(NC(C)=O)cc2Nc2cc(C)nc(C(C)(F)F)n2)ncn1 [Example 194] ?
≥ 8.00

Then CC(=O)Nc1cc(Nc2cc(C)nc(C(C)(F)F)n2)c(-c2cc3n(n2)CC(C)N(C)C3)cn1 (centres unmarked) [Example 548] ?
≥ 8.00

Then COc1cnc(NC(C)=O)cc1Nc1cc(C)nc(C2CCOC2)n1 (centres unmarked) [Example 451] ?
≤ 6.00

Then CCc1cc(Nc2cc(NC(C)=O)ncc2-c2ncccn2)nc(C(C)(F)F)n1 [Example 719] ?
≥ 8.00

Then COCc1nccc(-c2cnc(NC(C)=O)cc2Nc2cc(C)nc(C(C)(F)F)n2)n1 [Example 661] ?
≥ 8.00

----------
- Assayed System: UniProt P29597
- Assay Notes: pSTAT4 Cell Assay (MSD, NK92 cells)
- Format: cell-based
- Procedure: The inhibitory potency of compounds of the disclosure against the Tyk2 kinase activity on STAT4 was evaluated using an MSD-platform plate-based assay format. NK92 cells natively expressing STAT4 and Tyk2 were serum-starved to reduce background phosphorylation levels, then cells were treated compounds for 1 hr with a 10-point four-fold dilution series starting at 10 μM. Cells were then stimulated with 30 ng/mL IL2 for 15 minutes. […]
pIC50: −log10 of the molar value.
Provide the reported pIC50 of each item.

Bench note: what pIC50 did COc1cnc(-c2cnc(NC(C)=O)cc2Nc2cc(OC3CC3)nc(C(C)(F)F)n2)cn1 show?
7.00 to 8.00

Then CCc1cc(Nc2cc(NC(C)=O)ncc2-c2ccc(F)c(CN3CCOCC3)n2)nc(C(C)(F)F)n1 ?
≥ 8.00

Then COCc1cc(-c2cnc(NC(C)=O)cc2Nc2cc(C)nc(C(C)(F)F)n2)nn1C ?
≥ 8.00

Then COC1(C)CN(c2ccc(-c3cnc(NC(C)=O)cc3Nc3ccnc(C(C)(F)F)n3)nn2)C1 ?
≥ 8.00

----------
Provide the reported IC50 of each item.
- Assayed System: Tyk2 (Homo sapiens (Human))
- Assay Notes: pSTAT4 Cell Assay (MSD, NK92 cells)
- Format: cell-based
- Measurement Setup: MSD

Bench note: what IC50 did COc1cncc(Nc2cc(NC(C)=O)ncc2-c2ccc(F)cn2)n1 show?
10 to 100 nM

Then COCCOc1cc(-c2cnc(NC(C)=O)cc2Nc2cc(C)nc(C(C)(F)F)n2)ncn1 ?
10 to 100 nM

Then COc1cnc(NC(C)=O)cc1Nc1cc(-c2cnn(CC(F)(F)F)c2)nc(C(C)(F)F)n1 ?
10 to 100 nM

Then CC(=O)Nc1cc(Nc2cc(C)nc(C(C)(F)F)n2)c(-c2cnn(C)n2)cn1 ?
≤ 10 nM

Then CC(=O)Nc1cc(Nc2ccnc(C(C)(F)F)n2)c(-c2cc(C)ccn2)cn1 ?
10 to 100 nM

Then CC(=O)Nc1cc(Nc2cc(C)nc(C(C)(F)F)n2)c(OCc2ccc(C#N)cn2)cn1 ?
10 to 100 nM

Then COc1nccc(-c2cnc(NC(C)=O)cc2Nc2cc(C)nc(C(C)(F)F)n2)n1 ?
≤ 10 nM

Then CO[C@H]1C[C@H](Oc2cc(Nc3cc(NC(C)=O)ncc3-c3ccn(C)n3)nc(C(C)(F)F)c2)C1 ?
≤ 10 nM

Then COc1ccnc(-c2cnc(NC(C)=O)cc2Nc2cc(C)nc(C(C)(F)F)n2)n1 ?
≥ 1000 nM

Then CC(=O)Nc1cc(Nc2cc(C)nc(C(C)(F)F)n2)c(-c2ccc(CN(C)C)cn2)cn1 ?
≤ 10 nM

Then CC(=O)Nc1cc(Nc2cc(C)nc(C(C)(F)F)n2)c(-c2ncc(C#N)cc2F)cn1 ?
≥ 1000 nM

Then CC(=O)Nc1cc(Nc2cc(C)nc(C34COC(C3)C4)n2)c(-c2ccc(C(C)F)cn2)cn1 (centres unmarked) ?
≤ 10 nM

Then CC(=O)Nc1cc(Nc2cncc(C(C)(F)F)n2)c(-c2ccn(C)n2)cn1 ?
≤ 10 nM

Then COCCOc1cnc(NC(C)=O)cc1Nc1cc(C)nc(C(C)(F)F)n1 ?
≤ 10 nM

Then COCn1ncc(-c2cnc(NC(C)=O)cc2Nc2cc(C)nc(C(C)(F)F)n2)n1 ?
≤ 10 nM

Then CC(=O)Nc1cc(Nc2cc(C)nc(C(C)(F)F)n2)c(-c2ccc3c(n2)CCOC3)cn1 ?
≤ 10 nM

Then CC(=O)Nc1cc(Nc2cc(C)nc(C(C)(F)F)n2)c(OCc2cc(C)ccn2)cn1 ?
≤ 10 nM

----------
Provide the reported IC50 of each item.
- Assayed System: JH2 domain of human Tyk2 (Homo sapiens (Human))
- Sequence (P29597 575-876): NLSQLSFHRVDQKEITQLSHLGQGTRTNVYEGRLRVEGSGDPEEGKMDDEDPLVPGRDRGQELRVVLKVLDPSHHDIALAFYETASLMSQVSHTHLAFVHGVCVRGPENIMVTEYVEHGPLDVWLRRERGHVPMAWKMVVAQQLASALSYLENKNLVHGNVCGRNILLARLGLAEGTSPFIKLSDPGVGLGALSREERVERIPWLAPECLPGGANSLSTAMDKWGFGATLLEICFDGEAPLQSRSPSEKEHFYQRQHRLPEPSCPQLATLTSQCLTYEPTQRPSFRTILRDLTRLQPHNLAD
- Assay Notes: JH2 Biochemical Assay (TR-FRET probe displacement)
- Type: binding
- Measurement Setup: JH2 domain of human Tyk2, TR-FRET probe displacement

Bench note: what IC50 did CC(=O)Nc1cc(Nc2cc(C)nc(C(C)(F)F)n2)c(OC[C@]23CO[C@](CF)(C2)C3)cn1 show?
≤ 10 nM

Then CC(=O)Nc1cc(Nc2ccnc(C(C)(F)F)n2)c(-c2cc3n(n2)CCOC3)cn1 ?
≤ 10 nM

Then COc1nc(-c2cnc(NC(C)=O)cc2Nc2cc(C)nc(C(C)(F)F)n2)cs1 ?
≤ 10 nM

Then CC(=O)Nc1cc(Nc2ccnc(C(C)(F)F)n2)c(-c2csc(C(C)(C)F)n2)cn1 ?
≤ 10 nM

Then COc1cccc(-c2cnc(NC(C)=O)cc2Nc2cc(C)nc(C(C)(F)F)n2)n1 ?
≤ 10 nM

Then CC(=O)Nc1cc(Nc2cc(C)nc(C(C)(F)F)n2)c(-c2ccccn2)cn1 ?
≤ 10 nM

Then CC(=O)Nc1cc(Nc2cc(C)nc(C(C)(F)F)n2)c(-c2nncs2)cn1 ?
≤ 10 nM

Then COc1cc(-c2cnc(NC(C)=O)cc2Nc2ccnc(C(C)(F)F)n2)nc(OC)n1 ?
≤ 10 nM

Then CC(=O)Nc1cc(Nc2cc(C)nc(C(C)(F)F)n2)c(-c2cc(C)n(C)n2)cn1 ?
≤ 10 nM

Then CC(=O)Nc1cc(Nc2cc(C)nc(C(C)(F)F)n2)c(OCC2COCC(C)(C)O2)cn1 (centres unmarked) ?
≤ 10 nM

Then CC(=O)Nc1cc(Nc2cc(C)nc(C(C)(F)F)n2)c(-c2csc(C(C)C)n2)cn1 ?
≤ 10 nM

Then CC(=O)Nc1cc(Nc2ccnc(C(C)(F)F)n2)c(-c2nnc(C(C)(C)C)s2)cn1 ?
≤ 10 nM

Then CC(=O)Nc1cc(Nc2ccnc(C(C)(F)F)n2)c(-n2cnc(C)n2)cn1 ?
100 to 1000 nM

Then CC(=O)Nc1cc(Nc2ccnc(C(C)(F)F)n2)c(-c2ccn3ncnc3n2)cn1 ?
≤ 10 nM

Then CC(=O)Nc1cc(Nc2cc(C)nc(C(C)(F)F)n2)c(-c2ncc(C(F)F)cn2)cn1 ?
≤ 10 nM

Then CC(=O)Nc1cc(Nc2ccnc(C(C)(F)F)n2)c(-c2cc(C)ccn2)cn1 ?
≤ 10 nM

Then COc1cnc(NC(C)=O)cc1Nc1cc(C)nc(C23COC(C2)C3)n1 ?
10 to 100 nM

----------
Provide the reported IC50 of each item.
- Assayed System: Tyk2 (Homo sapiens (Human), UniProt P29597)
- Sequence (P29597 whole entry): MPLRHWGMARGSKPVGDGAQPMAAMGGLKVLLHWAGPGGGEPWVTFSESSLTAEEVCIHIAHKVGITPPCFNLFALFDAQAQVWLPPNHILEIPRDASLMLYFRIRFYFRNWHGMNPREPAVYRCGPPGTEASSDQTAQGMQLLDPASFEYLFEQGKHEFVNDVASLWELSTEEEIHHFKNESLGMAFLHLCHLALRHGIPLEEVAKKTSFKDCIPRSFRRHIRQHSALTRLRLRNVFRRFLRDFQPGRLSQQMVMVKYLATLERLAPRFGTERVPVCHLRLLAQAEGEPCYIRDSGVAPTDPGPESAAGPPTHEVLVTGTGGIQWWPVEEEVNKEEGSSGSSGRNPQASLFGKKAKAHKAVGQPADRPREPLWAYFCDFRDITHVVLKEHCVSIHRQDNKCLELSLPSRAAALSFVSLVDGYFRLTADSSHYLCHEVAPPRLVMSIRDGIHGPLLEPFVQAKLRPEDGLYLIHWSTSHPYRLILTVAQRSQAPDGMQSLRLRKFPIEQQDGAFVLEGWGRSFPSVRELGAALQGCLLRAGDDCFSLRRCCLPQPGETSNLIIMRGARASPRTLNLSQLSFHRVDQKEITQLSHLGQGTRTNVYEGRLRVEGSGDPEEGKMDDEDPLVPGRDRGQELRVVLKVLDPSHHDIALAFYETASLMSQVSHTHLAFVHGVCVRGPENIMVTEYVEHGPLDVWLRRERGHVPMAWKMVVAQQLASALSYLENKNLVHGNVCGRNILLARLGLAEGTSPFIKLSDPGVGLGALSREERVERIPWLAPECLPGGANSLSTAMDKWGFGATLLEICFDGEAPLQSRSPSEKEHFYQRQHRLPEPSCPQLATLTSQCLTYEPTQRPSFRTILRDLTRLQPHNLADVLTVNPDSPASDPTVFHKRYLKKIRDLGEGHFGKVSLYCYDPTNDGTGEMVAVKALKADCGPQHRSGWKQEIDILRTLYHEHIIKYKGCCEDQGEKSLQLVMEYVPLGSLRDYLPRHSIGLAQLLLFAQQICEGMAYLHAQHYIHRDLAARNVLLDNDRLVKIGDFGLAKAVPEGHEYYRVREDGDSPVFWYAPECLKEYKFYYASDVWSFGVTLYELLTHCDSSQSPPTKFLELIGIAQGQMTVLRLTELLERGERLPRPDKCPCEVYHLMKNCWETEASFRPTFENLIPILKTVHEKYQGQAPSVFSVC
- Assay Notes: pSTAT4 Cell Assay (MSD, NK92 cells)
- Format: cell-based

State its IC50 on Tyk2 (Homo sapiens (Human), UniProt P29597): CC(=O)Nc1cc(Nc2cc(C)nc(C(C)(F)F)n2)c(-c2cn3c(n2)OCC3)cn1
≤ 10 nM

Then CCc1cc(Nc2cc(NC(C)=O)ncc2-c2ncc(CN3CCCC3)cn2)nc(C(C)(F)F)n1 ?
100 to 1000 nM

Then CC(=O)Nc1cc(Nc2ccnc(C(C)(F)F)n2)c(-c2ncc(OC(F)F)cn2)cn1 ?
10 to 100 nM

Then CCc1cc(Nc2cc(NC(C)=O)ncc2-c2ccc(CN3C[C@H]4C[C@@H](C3)O4)cn2)nc(C(C)(F)F)n1 ?
≤ 10 nM

Then CC(=O)Nc1cc(Nc2cc(C)nc(C34COC(C3)C4)n2)c(-c2ccc(C#N)cn2)cn1 ?
10 to 100 nM

Then CC(=O)Nc1cc(Nc2cc(C)nc(C34COC(C3)C4)n2)c(-c2ccncn2)cn1 ?
≤ 10 nM

Then CC(=O)Nc1cc(Nc2ccnc(C(C)(F)F)n2)c(-c2cnc(N3CC4(COC4)C3)cn2)cn1 ?
100 to 1000 nM

Then CC(=O)Nc1cc(Nc2ccnc(C(C)(F)F)n2)c(-c2csc(CC#N)n2)cn1 ?
≤ 10 nM
